target: acetylcholinesterase (AChE) (Homo sapiens); format: biochemical; conditions: at 100 µM
Sequence (P22303 32-614, species assumed): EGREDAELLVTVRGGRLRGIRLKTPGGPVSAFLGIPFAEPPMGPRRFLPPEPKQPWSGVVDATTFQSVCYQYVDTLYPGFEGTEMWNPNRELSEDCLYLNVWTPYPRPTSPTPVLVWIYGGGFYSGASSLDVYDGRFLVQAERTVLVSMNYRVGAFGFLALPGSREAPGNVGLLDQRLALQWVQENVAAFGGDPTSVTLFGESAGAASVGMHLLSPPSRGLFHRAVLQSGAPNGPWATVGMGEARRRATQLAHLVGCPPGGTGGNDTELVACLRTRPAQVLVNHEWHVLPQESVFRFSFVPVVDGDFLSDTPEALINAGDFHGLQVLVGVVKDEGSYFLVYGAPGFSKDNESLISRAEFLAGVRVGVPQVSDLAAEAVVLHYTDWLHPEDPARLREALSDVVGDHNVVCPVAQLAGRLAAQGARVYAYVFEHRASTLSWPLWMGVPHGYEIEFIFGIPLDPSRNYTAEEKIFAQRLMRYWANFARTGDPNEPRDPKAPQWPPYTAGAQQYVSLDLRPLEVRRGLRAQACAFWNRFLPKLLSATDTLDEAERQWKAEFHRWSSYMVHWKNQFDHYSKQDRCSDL
test_readout: Anti ACHE % (%)

compound	endpoint_value
COc1cc(O)c2c(=O)cc(-c3ccc(O)cc3)oc2c1 [Molecule M12, 4′,5-dihydroxy-7-methoxyflavone]	51.0
O=c1cc(-c2cccc(O)c2)oc2cc(O)ccc12 [Molecule M13, 7,3′-dihydroxyflavone]	63.9
O=c1cc(-c2ccccc2)oc2cc(O)c(O)c(O)c12 [Molecule M7, 5,6,7-trihydroxyflavone]	62.0
O=c1cc(-c2cccc(O)c2)oc2c1ccc1ccccc12 [Molecule M10, 3′-hydroxy-a-naphthoflavone]	54.7
O=c1cc(-c2cccc(O)c2)oc2ccc3ccccc3c12 [Molecule M9, 3′-hydroxy-b-naphthoflavone]	47.9
COc1ccc(-c2cc(=O)c3c(O)cc(O[C@@H]4O[C@H](CO[C@@H]5O[C@@H](C)[C@H](O)[C@@H](O)[C@H]5O)[C@@H](O)[C@H](O)[C@H]4O)cc3o2)cc1O [Molecule M19]	37.7
COc1cccc(-c2cc(=O)c3c(O)cccc3o2)c1 [Molecule M11, 5-hydroxy-3′-methoxyflavone]	52.6
